Attribute: fraction ligated
System: F1*sub RNA substrate (template-directed ligation)
Assay: fraction ligated after 30 min (ligated reads / total reads); higher = more ligase activity; sequences stand for … in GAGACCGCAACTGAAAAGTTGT…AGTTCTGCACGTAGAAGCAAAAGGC
Conditions: 42 °C
# answer = number (no unit)

Answered examples (3):
Noted fraction ligated for TACACTTGTCGTAAGACACTGGATGGGTTGA [3d714] , tested on F1*sub RNA substrate (template-directed ligation): 0.191

Noted fraction ligated for TATCACTGTGTAAGACACTTTGATGGGTTGA [3d1352] , tested on F1*sub RNA substrate (template-directed ligation): 0.355

Noted fraction ligated for TATCACTTGTCAAGACCTTTGGATGGGTTGA [3d1814] , tested on F1*sub RNA substrate (template-directed ligation): 0.762

In the following, a different sequence is considered.
Noted fraction ligated for TATACTTGTCGAAGCACTTTGGATGGGTTGA [3d859] , tested on F1*sub RNA substrate (template-directed ligation): 0.703

###

System: F1*sub RNA substrate (template-directed ligation)
Assay: fraction ligated after 30 min (ligated reads / total reads); higher = more ligase activity; sequences stand for … in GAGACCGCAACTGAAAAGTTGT…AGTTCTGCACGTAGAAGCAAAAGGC
Conditions: 42 °C
Please note: y applies when fraction ligated is 0.5 or greater, and n applies otherwise.

Could you tell me if the measured fraction ligated of TATCACTTGTGTAAGACACTTGGAGGGTTGA [3d1789] reaches 0.5 or more?
n

Could you tell me if the measured fraction ligated of ATCACTGTCGTAAGACACTTTGGATGGTTGA [3d121] reaches 0.5 or more?
n

Could you tell me if the measured fraction ligated of TATCACTTGTCGAAACACTTGGATGGGTTGA [3d1918] reaches 0.5 or more?
y

Could you tell me if the measured fraction ligated of TATCACTGTCGTAGACCTTTGGATGGGTTGA [3d1389] reaches 0.5 or more?
y

Could you tell me if the measured fraction ligated of TATCACTTTGTAAGACACTTTGGTGGGTTGA [3d1474] reaches 0.5 or more?
n

Could you tell me if the measured fraction ligated of TATCCTTGTCTAAACACTTTGGATGGGTTGA [3d1017] reaches 0.5 or more?
y

Could you tell me if the measured fraction ligated of TATCACTTGTGTAAGCATTTGGATGGGTTGA [3d1756] reaches 0.5 or more?
y

###

Test system: F1*sub RNA substrate (template-directed ligation)
Assay: fraction ligated after 30 min (ligated reads / total reads); higher = more ligase activity; sequences stand for … in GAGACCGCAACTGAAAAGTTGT…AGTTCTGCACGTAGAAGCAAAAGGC
Details: 42 °C
Please note: yes applies when fraction ligated is 0.8 or greater, and no applies otherwise.

Observe how each entry below is paired with its result.
Could you tell me if the measured fraction ligated of TACATTGTCGTAAGACATTTGGATGGGTTGA [3d558] reaches 0.8 or more?
no

Could you tell me if the measured fraction ligated of TATCACTTGGTAAGACCTTTGGATGGGTTGA [3d1590] reaches 0.8 or more?
no

Others:
Could you tell me if the measured fraction ligated of TATCACTTGTCGAAACACTTTGATGGGTTGA [3d1919] reaches 0.8 or more?
no

Could you tell me if the measured fraction ligated of ATCACTTGTCTAAGACACTTTGGATGGGTTGA [2d10] reaches 0.8 or more?
no

Could you tell me if the measured fraction ligated of TATCACTTGCTAAGCACTTTGGATGGGTTGA [3d1602] reaches 0.8 or more?
yes

Could you tell me if the measured fraction ligated of TATACTTTCGAAGACACTTTGGATGGGTTGA [3d798] reaches 0.8 or more?
no
